- TARGET_OR_TEST_SYSTEM: Metabotropic glutamate receptor 5 (Rattus norvegicus, UniProt P31424)
- Sequence (P31424 whole entry): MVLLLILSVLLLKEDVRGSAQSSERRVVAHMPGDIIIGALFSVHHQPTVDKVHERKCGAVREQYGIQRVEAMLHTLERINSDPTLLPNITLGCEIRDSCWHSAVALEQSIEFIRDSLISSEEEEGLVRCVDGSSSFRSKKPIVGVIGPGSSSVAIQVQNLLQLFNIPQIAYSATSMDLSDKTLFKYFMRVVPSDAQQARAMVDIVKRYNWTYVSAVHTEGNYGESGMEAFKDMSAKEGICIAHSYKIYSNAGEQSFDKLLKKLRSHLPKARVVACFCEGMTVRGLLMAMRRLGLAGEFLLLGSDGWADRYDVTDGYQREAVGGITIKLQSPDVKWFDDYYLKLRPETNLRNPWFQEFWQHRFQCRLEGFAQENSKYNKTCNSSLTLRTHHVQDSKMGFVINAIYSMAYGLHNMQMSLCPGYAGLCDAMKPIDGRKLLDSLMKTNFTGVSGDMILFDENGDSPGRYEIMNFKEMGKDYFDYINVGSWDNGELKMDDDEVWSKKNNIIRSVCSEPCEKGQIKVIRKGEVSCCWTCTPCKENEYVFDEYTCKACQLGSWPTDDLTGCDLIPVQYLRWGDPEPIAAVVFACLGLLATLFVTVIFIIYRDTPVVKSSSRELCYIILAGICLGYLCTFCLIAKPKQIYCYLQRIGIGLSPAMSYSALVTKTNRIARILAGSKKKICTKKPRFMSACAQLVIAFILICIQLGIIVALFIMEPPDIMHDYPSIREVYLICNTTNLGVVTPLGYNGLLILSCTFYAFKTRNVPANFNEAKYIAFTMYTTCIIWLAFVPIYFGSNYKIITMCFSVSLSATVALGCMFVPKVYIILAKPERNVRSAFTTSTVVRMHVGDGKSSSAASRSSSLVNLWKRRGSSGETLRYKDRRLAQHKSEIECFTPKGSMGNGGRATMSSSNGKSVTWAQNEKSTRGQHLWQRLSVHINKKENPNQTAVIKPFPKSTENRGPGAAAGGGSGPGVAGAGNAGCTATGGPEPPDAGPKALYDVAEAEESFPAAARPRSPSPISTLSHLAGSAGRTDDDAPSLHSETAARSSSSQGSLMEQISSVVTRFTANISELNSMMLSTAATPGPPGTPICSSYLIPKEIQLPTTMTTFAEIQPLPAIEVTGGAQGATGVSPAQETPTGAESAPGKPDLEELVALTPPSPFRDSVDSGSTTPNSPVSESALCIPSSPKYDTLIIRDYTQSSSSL
- ASSAY_EXPLANATION: Antagonist activity at mGluR5 in Sprague-Dawley rat astrocyte assessed as L-quisqualate induced potentiation of intracellular calcium level by FLIPR assay
EC50: recorded values
QUANTITY_MEASURED: EC50

* O[C@@H]1CCCc2nc(C#Cc3ccccc3)ccc21 | 180 nM
* O=C1CCCc2nc(C#Cc3ccccc3)ccc21 | 34 nM
* O[C@H]1CCCc2nc(C#Cc3ccccc3)ccc21 | 250 nM
* OC1CCCc2nc(C#Cc3ccccc3)ccc21 (centres undefined) | 490 nM

====

- TARGET_OR_TEST_SYSTEM: Metabotropic glutamate receptor 1 (Rattus norvegicus)
- Sequence (P23385 whole entry): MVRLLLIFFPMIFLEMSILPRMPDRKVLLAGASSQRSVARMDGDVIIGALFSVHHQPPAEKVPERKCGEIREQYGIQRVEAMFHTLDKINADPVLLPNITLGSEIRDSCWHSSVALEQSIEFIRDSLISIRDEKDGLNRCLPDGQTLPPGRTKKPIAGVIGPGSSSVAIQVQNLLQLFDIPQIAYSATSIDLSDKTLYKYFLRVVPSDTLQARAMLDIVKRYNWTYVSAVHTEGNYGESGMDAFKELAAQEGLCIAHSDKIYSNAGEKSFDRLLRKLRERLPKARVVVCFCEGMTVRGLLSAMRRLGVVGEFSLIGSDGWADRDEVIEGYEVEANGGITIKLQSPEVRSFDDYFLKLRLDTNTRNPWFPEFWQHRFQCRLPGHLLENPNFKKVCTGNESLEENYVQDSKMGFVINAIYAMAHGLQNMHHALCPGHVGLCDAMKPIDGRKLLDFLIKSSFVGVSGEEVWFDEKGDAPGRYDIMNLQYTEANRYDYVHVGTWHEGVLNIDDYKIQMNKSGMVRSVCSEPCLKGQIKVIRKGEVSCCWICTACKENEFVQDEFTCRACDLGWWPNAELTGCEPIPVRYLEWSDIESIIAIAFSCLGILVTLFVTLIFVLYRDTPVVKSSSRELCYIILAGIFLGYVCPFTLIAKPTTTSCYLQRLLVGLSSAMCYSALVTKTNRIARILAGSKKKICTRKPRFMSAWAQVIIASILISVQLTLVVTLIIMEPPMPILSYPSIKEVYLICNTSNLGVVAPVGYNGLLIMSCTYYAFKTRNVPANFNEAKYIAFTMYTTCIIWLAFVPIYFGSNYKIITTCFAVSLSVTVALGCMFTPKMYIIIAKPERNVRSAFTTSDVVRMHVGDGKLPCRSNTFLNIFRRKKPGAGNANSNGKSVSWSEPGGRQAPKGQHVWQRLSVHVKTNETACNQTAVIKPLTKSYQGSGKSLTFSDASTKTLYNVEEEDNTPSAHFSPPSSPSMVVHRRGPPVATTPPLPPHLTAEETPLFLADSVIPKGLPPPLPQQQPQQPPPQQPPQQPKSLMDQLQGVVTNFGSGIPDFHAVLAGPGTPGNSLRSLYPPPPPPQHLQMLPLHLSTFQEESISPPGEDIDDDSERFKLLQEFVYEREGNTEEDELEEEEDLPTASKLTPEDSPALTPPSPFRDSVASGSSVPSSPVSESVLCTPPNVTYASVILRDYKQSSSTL
- ASSAY_EXPLANATION: Antagonist activity at rat mGluR1 expressed in cerebellar granule cells assessed as accumulation of [3H]inositol phosphate
- Type: functional, cell-based
pIC50: −log10 of the molar value.
Listing of recorded pIC50 by entry.
QUANTITY_MEASURED: pIC50

* CCCCNc1nc2c(cc1C#N)C(=O)CC(C)(C)C2 | 5.77
* CCCCCCNc1nc2c(cc1C#N)C(=O)CC(C)(C)C2 | 5.59
* CC1(C)CC(=O)c2cc(C#N)c(SCc3ccccc3)nc2C1 | 5.32
* O=C1CCCc2nc(N3CCN(c4ccccc4)CC3)ccc21 | 4.98
* CC1(C)CC(=O)c2ccc(OCc3ccccc3)nc2C1 | 4.68
* O=C(NC12CC3CC(CC(C3)C1)C2)c1cnc2ccccc2c1 | 7.28
* COc1ccc(N2CCN(c3nc4c(cc3C#N)C(=O)CC(C)(C)C4)CC2)cc1 | 5.12
* CC1(C)CC(=O)c2cc(C#N)c(NC3CCCCC3)nc2C1 | 5.40
* O=C(NC12CC3CC(CC(C3)C1)C2)c1ccc2ccccc2n1 | 6.36
* O=C(NC12CC3CC(CC(C3)C1)C2)c1cnc2ccccc2n1 | 8.30
